target: DP receptor (Homo sapiens); construct: endogenous in cells; test: Receptor binding assay, [3H]-PGD2, platelet membrane; conditions: [3H]-PGD2, human platelet membrane, on ice 2 hours
Sequence (Q13258 whole entry): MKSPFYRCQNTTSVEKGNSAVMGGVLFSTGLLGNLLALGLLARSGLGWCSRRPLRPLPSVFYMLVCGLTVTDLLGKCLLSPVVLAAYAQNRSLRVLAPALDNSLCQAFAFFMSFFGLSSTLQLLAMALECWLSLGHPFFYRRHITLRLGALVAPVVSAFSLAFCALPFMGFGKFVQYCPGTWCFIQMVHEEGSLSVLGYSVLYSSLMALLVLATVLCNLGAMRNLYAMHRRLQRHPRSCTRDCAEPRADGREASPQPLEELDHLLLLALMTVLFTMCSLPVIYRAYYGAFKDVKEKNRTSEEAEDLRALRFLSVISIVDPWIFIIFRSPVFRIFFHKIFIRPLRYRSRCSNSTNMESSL
Measured log10 of Ki values are reported for all entries that follow.
Response schema: value (number) is log10 of Ki in units of nM.

| Compound | Result Type | Assay Result |
| --- | --- | --- |
| CC(C)Oc1ccc(S(=O)(=O)N2CCC(c3cn(CC(=O)O)c4cc(-c5ccncc5)ccc34)C2)cc1.Cl (centres unmarked) | log10 of Ki | -0.18 |

In the following, a different compound is considered.
Prompt: Fill blank: measured log10 of Ki of the compound `CC(C)Oc1ccc(S(=O)(=O)N2CCC(c3cn(CC(=O)O)c4ccc(F)cc34)CC2)cc1` is ____.
Response: 0.34

====

Below, each entry is listed with its recorded IC50.
target: DP receptor (Homo sapiens); construct: endogenous in cells; assay: cAMP assay with washed platelets (DP inhibitory activity in vitro); settings: 100 nM PGD2, cAMP by HTRF, read-out: IC50 (50% DP-inhibitory concentration in the cAMP assay)
Express your answer in nM, writing the number without its unit.

Solved entries:
| Compound | Readout Units | Assay Result |
| --- | --- | --- |
| CC(C)Oc1ccc(S(=O)(=O)N2CCC(c3cn(CC(=O)O)c4cc(C#N)ccc34)CC2)cc1 [Compound I-98] | nM | 0.97 |
| CC(C)Oc1ccc(S(=O)(=O)N2CC[C@@H](c3cn(CC(=O)O)c4cc(-c5ccco5)ccc34)C2)cc1 [Compound I-101] | nM | 0.27 |
| CC(C)Oc1ccc(S(=O)(=O)N2CCC(c3cn(CC(=O)O)c4ccc(Cl)cc34)CC2)cc1 [Compound I-3] | nM | 1.3 |

Prompt: Request body: readout IC50, system DP receptor (Homo sapiens), query CC(C)Oc1ccc(S(=O)(=O)N2CCC(c3cn(CC(=O)O)c4cc(-c5cccc(C#N)c5)ccc34)C2)cc1 (stereo not shown) [Compound I-73] . Return the value.
Response: 2

Prompt: Also check CC(C)Oc1ccc(S(=O)(=O)N2CCC(c3cn(CC(=O)O)c4cc(-c5ccoc5)ccc34)C2)cc1 (stereo not shown) [Compound I-78]
Response: 1.2

Prompt: Let us now turn to CC(C)Oc1ccc(S(=O)(=O)N2CCC(c3cn(CC(=O)O)c4cc(-c5ccc6c(c5)OCO6)ccc34)C2)cc1 (stereo not shown) [Compound I-80]
Response: 1.4

Prompt: Then what about the compound CC(C)Oc1ccc(S(=O)(=O)N2CCC(c3cn(CC(=O)O)c4cc(-c5nccs5)ccc34)C2)cc1 (stereo not shown) [Compound I-93] ?
Response: 0.5

Prompt: Try this compound next: CC(C)Oc1ccc(S(=O)(=O)N2CCC(c3cn(CC(=O)O)c4cc(Br)ccc34)C2)cc1F (stereo not shown) [Compound I-86]
Response: 1.3

====

The entries below are paired with their reported inhibition rate (%) infiltration of inflammatory cells.
System: Brown Norway (BN) Rats
Assay: Test using OVA asthma model of rat
Assay type: in vivo
Details: 10 mg/kg p.o. once a day for three days; vs control group; total cell number in bronchoalveolar washings
Method: Brown Norway (BN) Rats were sensitized by i.p. administration of 0.1 mg/mL of ovalbumin (OVA) and 1 mg of aluminum hydroxide gel. […] After the measurement of increased hyperresponsive airway was; completed, bronchoalveoli of the rats were washed with 5 mL of saline three times. Total cell number in the washings was counted by a hemacytometer under light microscope, and inhibition rates of infiltration of inflammatory cells against the control group were calculated. […]
Please reply with the bare figure in % and do not write the unit itself.

| Compound | Test Target | Readout Units | Assay Result |
| --- | --- | --- | --- |
| CC(C)Oc1ccc(S(=O)(=O)N2CCC(c3cn(CC(=O)O)c4cc(N5CCOCC5)ccc34)C2)cc1.Cl (stereo not drawn) | Brown Norway (BN) Rats | % | 35 |
| CC(C)Oc1ccc(S(=O)(=O)N2CC[C@@H](c3cn(CC(=O)O)c4cc(-c5ncco5)ccc34)C2)cc1 | Brown Norway (BN) Rats | % | 58 |
| CC(C)Oc1ccc(S(=O)(=O)N2CC[C@@H](c3cn(CC(=O)O)c4ccc(Cl)cc34)C2)cc1 | Brown Norway (BN) Rats | % | 61 |

Prompt: Entry CC(C)Oc1ccc(S(=O)(=O)N2CCC(c3cn(CC(=O)O)c4cc(Cl)ccc34)C2)cc1 (stereo not drawn) , system Brown Norway (BN) Rats: what inhibition rate (%) infiltration of inflammatory cells was measured?
Response: 57

Prompt: Consider next the compound CC(C)Oc1ccc(S(=O)(=O)N2CCC(c3cn(CC(=O)O)c4cc(-c5ccco5)ccc34)C2)cc1 (stereo not drawn) in the same way.
Response: 28

Prompt: Now this one: CC(C)Oc1ccc(S(=O)(=O)N2CCC(c3cn(CC(=O)O)c4cc(-c5ccncc5)ccc34)C2)cc1.Cl (stereo not drawn)
Response: 71
